# Test Target: human amnionic whole cell cyclooxygenase-2 (WISH cells) (Homo sapiens, UniProt P35354)
# Construct: endogenous in cells; host or cells: human amnionic WISH cells, induced with IL-1beta
# Sequence (P35354 18-604): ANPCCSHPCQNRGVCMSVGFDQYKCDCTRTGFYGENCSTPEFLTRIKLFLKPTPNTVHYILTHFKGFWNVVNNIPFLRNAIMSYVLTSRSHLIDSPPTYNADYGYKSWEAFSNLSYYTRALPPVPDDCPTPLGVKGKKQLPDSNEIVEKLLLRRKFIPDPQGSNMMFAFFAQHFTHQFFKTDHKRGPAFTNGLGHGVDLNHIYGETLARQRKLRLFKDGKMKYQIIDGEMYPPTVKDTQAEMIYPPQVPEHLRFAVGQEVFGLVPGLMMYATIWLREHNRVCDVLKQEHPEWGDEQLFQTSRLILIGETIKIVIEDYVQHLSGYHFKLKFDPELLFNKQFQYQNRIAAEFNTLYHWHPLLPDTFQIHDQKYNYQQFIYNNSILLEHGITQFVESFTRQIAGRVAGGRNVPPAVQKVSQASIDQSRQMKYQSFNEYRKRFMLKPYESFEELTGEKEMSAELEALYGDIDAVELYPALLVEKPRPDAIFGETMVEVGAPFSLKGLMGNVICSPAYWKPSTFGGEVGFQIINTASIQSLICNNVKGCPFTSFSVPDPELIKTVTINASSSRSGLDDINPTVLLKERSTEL
# Test Summary: IL-1β induced PGE2 production in WISH cells
# Format: cell-based
# Cond: 0.1 μM; read-out: Wish % Inhib. at Dose
Entry flag: fulfilled if inhibition at 0.1 µM reaches 90%; not fulfilled if it does not.

Compound: CC(C)Oc1c(-c2ccc(S(C)(=O)=O)cc2)cnn(-c2cccc(Br)c2)c1=O
Test Target: human amnionic whole cell cyclooxygenase-2 (WISH cells) (Homo sapiens, UniProt P35354)
Discrete Label: not fulfilled
//
Compound: CC(C)CCc1c(-c2ccc(S(N)(=O)=O)cc2)cnn(-c2ccc(F)c(F)c2)c1=O
Test Target: human amnionic whole cell cyclooxygenase-2 (WISH cells) (Homo sapiens, UniProt P35354)
Discrete Label: fulfilled
//
Compound: CC(C)CCCOc1c(-c2ccc(S(C)(=O)=O)cc2)cnn(-c2ccc(F)cc2)c1=O
Test Target: human amnionic whole cell cyclooxygenase-2 (WISH cells) (Homo sapiens, UniProt P35354)
Discrete Label: not fulfilled
//
Compound: CS(=O)(=O)c1ccc(-c2cnn(C3C4CC5CC(C4)CC3C5)c(=O)c2-c2ccc(F)cc2)cc1 (stereo not drawn)
Test Target: human amnionic whole cell cyclooxygenase-2 (WISH cells) (Homo sapiens, UniProt P35354)
Discrete Label: fulfilled
//
Compound: CS(=O)(=O)c1ccc(-c2cnn(-c3ccc(F)c(F)c3)c(=O)c2Cc2ccc(F)cc2)cc1
Test Target: human amnionic whole cell cyclooxygenase-2 (WISH cells) (Homo sapiens, UniProt P35354)
Discrete Label: not fulfilled
//
Compound: C/C(=C\Cn1ncc(-c2ccc(S(N)(=O)=O)cc2)c(-c2ccc(F)cc2)c1=O)C(F)(F)F
Test Target: human amnionic whole cell cyclooxygenase-2 (WISH cells) (Homo sapiens, UniProt P35354)
Discrete Label: fulfilled
//
Compound: CS(=O)(=O)c1ccc(-c2cnn(CC(F)(F)F)c(=O)c2OCc2ccco2)cc1
Test Target: human amnionic whole cell cyclooxygenase-2 (WISH cells) (Homo sapiens, UniProt P35354)
Discrete Label: not fulfilled
//
Compound: CS(=O)(=O)c1ccc(-c2cnn(-c3cccc(Cl)c3)c(=O)c2Sc2ccccn2)cc1
Test Target: human amnionic whole cell cyclooxygenase-2 (WISH cells) (Homo sapiens, UniProt P35354)
Discrete Label: not fulfilled

* * *

# Test Target: recombinant human Cox-1 (r-hu Cox1) (Homo sapiens)
# Construct: made in house; host or cells: baculovirus/Sf9 insect cells (microsomes)
# Sequence (P23219 24-599): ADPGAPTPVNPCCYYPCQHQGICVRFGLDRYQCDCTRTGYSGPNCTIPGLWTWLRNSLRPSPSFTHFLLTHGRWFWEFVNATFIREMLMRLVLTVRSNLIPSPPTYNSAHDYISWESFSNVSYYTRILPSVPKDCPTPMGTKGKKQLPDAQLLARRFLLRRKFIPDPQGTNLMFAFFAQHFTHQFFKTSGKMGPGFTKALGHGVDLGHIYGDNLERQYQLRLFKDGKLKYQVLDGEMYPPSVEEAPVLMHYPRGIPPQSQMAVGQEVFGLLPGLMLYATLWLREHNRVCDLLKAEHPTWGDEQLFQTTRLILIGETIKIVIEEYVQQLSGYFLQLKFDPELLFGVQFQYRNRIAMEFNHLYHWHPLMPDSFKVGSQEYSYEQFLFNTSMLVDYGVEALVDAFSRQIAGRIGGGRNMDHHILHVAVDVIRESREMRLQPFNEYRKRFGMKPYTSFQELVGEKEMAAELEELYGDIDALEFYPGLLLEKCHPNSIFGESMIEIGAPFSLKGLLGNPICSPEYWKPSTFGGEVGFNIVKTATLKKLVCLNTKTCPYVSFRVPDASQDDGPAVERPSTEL
# Test Summary: Recombinant human PGHS-1 enzyme assay (RHUCX1)
# Format: biochemical
# Cond: 100 μM; read-out: RHUCX1 % Inh. at Dose
Property: inhibition at 100 µM; scope: individual compounds

Substance Smiles: CS(=O)(=O)c1ccc(-c2cnn(Cc3ccccc3)c(=O)c2-c2ccc(Cl)c(Cl)c2)cc1
inhibition at 100 µM: 13%

Substance Smiles: CC(C)CCOc1c(-c2ccc(S(N)(=O)=O)cc2)cnn(-c2ccc(F)cc2)c1=O
inhibition at 100 µM: 26%

Substance Smiles: CS(=O)(=O)c1ccc(-c2cnn(C3CCC3)c(=O)c2-c2ccc(F)cc2)cc1
inhibition at 100 µM: 1%

Substance Smiles: CS(=O)(=O)c1ccc(-c2cnn(CC(F)(F)F)c(=O)c2-c2ccc(F)c(Cl)c2)cc1
inhibition at 100 µM: 0%
